Assign ΔTm to each entry below.
- Assay summary: Binding affinity to triplex DNA1 containing 15 nucleotide-long triplex-forming region (unknown origin) assessed as change in melting temperature at 10 uM by UV based assay
Numeric only. Scale: °C

Using the record for `COc1cc(O)c2c(=O)c(OC)c(-c3ccc(OC)c(OC)c3)oc2c1` , state its measured ΔTm.
3.2

Using the record for `COc1cc(OCCCCN2CCN(C)CC2)c2c(=O)c(OC)c(-c3ccc(OC)c(OC)c3)oc2c1` , state its measured ΔTm.
5.6

Using the record for `COc1cc(OCCCCN2CCCC2)c2c(=O)c(OC)c(-c3ccc(OC)c(OC)c3)oc2c1` , state its measured ΔTm.
12.6
